- Target desc: human RXFP1 (Homo sapiens, UniProt Q9HBX9)
- Sequence (Q9HBX9 1-757): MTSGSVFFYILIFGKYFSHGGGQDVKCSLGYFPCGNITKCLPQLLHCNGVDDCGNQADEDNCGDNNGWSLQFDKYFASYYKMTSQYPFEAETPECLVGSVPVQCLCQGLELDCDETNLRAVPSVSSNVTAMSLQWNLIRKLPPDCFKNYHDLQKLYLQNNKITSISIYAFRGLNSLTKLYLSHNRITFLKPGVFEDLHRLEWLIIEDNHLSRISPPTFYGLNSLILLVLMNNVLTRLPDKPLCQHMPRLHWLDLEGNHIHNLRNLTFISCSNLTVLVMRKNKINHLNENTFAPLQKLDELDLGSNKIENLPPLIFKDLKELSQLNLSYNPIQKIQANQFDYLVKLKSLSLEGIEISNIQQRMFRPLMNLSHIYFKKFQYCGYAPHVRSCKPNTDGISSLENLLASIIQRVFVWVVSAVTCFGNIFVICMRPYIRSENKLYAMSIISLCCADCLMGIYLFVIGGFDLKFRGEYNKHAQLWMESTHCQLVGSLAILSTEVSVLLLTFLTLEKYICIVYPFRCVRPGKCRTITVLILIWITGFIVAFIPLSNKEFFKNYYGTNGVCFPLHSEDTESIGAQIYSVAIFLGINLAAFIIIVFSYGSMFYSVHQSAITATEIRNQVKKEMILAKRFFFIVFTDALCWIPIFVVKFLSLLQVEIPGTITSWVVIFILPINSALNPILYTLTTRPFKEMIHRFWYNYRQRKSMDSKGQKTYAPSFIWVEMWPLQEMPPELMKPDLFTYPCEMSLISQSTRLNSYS
- Experiment notes: human RXFP1 (hRXFP1) HEK293 cAMP assay (HTRF)
- Experimental conditions: HEK293 cells stably expressing human RXFP1, 30 min at room temperature
The following molecules are listed with their measured pEC50 values.
Note: pEC50 values are expressed as the negative base-10 logarithm of concentration in M.

1. COc1ccc(-c2cc(C(=O)O)ccc2F)nc1C(=O)N[C@@H]1C2CCC(/C2=C/c2cnoc2)[C@@H]1C(=O)Nc1ccc(F)c(C(F)(F)F)c1 (stereo partly drawn) [Example 27] ... 6.54

State its pEC50 for this molecule: CC(C)(C)CNC(=O)[C@@H]1[C@H](NC(=O)c2cc(C3=NOC4CC(CO)CC34)cc3c2OC(C)(C)C3)[C@@H]2CC[C@H]1/C2=C/C1CC1 (stereo partly drawn) [Example 146]
8.46

Name the recorded pEC50 of the molecule listed here: CC1Cc2cc(C3=NOC4CC(CO)CC34)cc(C(=O)N[C@H]3[C@@H](C(=O)N[C@H](C)C4(C)CC4)[C@H]4CC[C@@H]3/C4=C\C3CC3)c2O1 (stereo partly drawn) [Example 153]
8.34

* * *

log10 of EC50 values by entry
- Target desc: human RXFP1 (Homo sapiens, UniProt Q9HBX9)
- Experiment notes: human RXFP1 (hRXFP1) HEK293 cAMP assay (HTRF)
- Experimental conditions: HEK293 cells stably expressing human RXFP1, 30 min at room temperature
Parameter value (number): base-10 log of EC50 in nM.

The cases that follow already have their log10 of EC50 on record.
1. O=C(NC1CCC1)O[C@@H](c1ccc(F)c(-c2cc(C(=O)N[C@@H]3C4CCC(/C4=C/C(F)(F)F)[C@@H]3C(=O)Nc3ccc(F)c(C(F)(F)F)c3)c(OCCO)cn2)c1)C(F)(F)F (stereo partly drawn) [Example 46] ... 1.81
2. COc1ncc(C2=NOC3CC(CO)CC23)cc1C(=O)N[C@@H]1C2CCC(/C2=C/C2CC2)[C@@H]1C(=O)N[C@H](C)C1(C(F)(F)F)CC1 (stereo partly drawn) [Example 141] ... 0.53
3. CC1(C)Cc2cc(C3=NOC4CCOCC34)cc(C(=O)N[C@H]3[C@@H](C(=O)Nc4ccc(F)c(C(F)(F)F)c4)[C@H]4CC[C@@H]3/C4=C\C3CC3)c2O1 (stereo partly drawn) [Example 147] ... 0.58
4. COc1cc2c(cc1C(=O)N[C@@H]1C3CCC(/C3=C/C3CC3)[C@@H]1C(=O)Nc1ccc(F)c(C(F)(F)F)c1)CCN(S(C)(=O)=O)C2 (stereo partly drawn) [Example 93] ... 3.23
5. COc1ccncc1C(=O)N[C@@H]1C2CCC(C2=C(C)C)[C@@H]1C(=O)Nc1ccc(F)c(C(F)(F)F)c1 (stereo partly drawn) [Example 2] ... 2.82

Please examine the following record next.
# lookup: human RXFP1 (Homo sapiens, UniProt Q9HBX9) log10 of EC50, key = COc1ncc(-c2cc([C@H](OC(=O)NC3CC3)C(F)(F)F)ccc2F)cc1C(=O)N[C@H]1[C@@H](C(=O)Nc2ccc(F)c(C(F)(F)F)c2)[C@H]2CC[C@@H]1/C2=C\CCC(F)(F)F [Example 165]
0.08

* * *

- Target desc: human RXFP1 (Homo sapiens)
- Sequence (Q9HBX9 1-757): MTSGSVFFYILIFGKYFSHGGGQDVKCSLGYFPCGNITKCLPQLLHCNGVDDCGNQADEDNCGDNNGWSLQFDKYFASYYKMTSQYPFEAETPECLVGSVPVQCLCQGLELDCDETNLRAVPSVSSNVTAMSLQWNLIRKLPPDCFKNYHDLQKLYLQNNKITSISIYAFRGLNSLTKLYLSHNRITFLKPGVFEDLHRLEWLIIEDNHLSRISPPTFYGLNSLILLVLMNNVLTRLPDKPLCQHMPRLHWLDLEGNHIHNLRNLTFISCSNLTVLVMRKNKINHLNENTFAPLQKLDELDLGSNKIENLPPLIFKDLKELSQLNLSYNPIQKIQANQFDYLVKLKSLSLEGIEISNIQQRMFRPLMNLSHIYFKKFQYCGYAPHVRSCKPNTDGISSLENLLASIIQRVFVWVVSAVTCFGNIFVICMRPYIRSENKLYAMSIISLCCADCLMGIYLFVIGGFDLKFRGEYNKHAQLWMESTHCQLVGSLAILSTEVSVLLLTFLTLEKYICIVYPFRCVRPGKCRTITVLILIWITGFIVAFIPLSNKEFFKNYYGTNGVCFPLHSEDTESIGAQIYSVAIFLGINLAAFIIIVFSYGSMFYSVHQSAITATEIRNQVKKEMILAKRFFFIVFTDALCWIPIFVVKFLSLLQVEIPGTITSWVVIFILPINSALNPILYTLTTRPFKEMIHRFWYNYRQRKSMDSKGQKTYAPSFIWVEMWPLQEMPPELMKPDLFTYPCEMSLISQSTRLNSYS
- Experiment notes: human RXFP1 (hRXFP1) HEK293 cAMP assay (HTRF)
- Experimental conditions: HEK293 cells stably expressing human RXFP1, 30 min at room temperature
Value kind: pEC50
Here pEC50 is given on a logarithmic scale as minus log10 of the concentration in mol/L.

Some compounds with recorded pEC50:
1. COc1ncc(C2=NOC3CC(CO)CC23)cc1C(=O)N[C@H]1[C@@H](C(=O)Nc2ccc(F)c(C(F)(F)F)c2)[C@H]2CC[C@@H]1/C2=C\c1csc(C)n1 (some centres unmarked) [Example 120] ... 8.32
2. COc1ncc(C2=NO[C@@H]3C[C@H](CO)CN23)cc1C(=O)N[C@@H]1C2CCC(/C2=C/C2CC2)[C@@H]1C(=O)Nc1ccc(F)c(C(F)(F)F)c1 (some centres unmarked) [Example 132] ... 8.74
3. COc1ncc(-c2cnc3n2CC(O)CC3)cc1C(=O)N[C@H]1[C@@H](C(=O)Nc2ccc(F)c(C(F)(F)F)c2)[C@H]2CC[C@@H]1/C2=C\C1CC1 (some centres unmarked) [Example 104] ... 8.40
4. COc1ncc(C2=NOC3CC(CO)CC23)cc1C(=O)N[C@H]1[C@@H](C(=O)N[C@H](C)C2(C)CC2)[C@H]2CC[C@@H]1/C2=C\C(F)(F)F (some centres unmarked) [Example 115] ... 8.68
5. COc1cc(C(=O)N[C@@H]2C3CCC(C3=C(C)C)[C@@H]2C(=O)Nc2ccc(F)c(C(F)(F)F)c2)c(OC)nn1 (some centres unmarked) [Example 4] ... 5.30

// fetch pEC50 given entry COc1ncc(C2=NOC3CC(CO)CC23)cc1C(=O)N[C@H]1[C@@H](C(=O)Nc2ccc(F)c(C(F)(F)F)c2)[C@H]2CC[C@@H]1/C2=C\C1CCCC1 (some centres unmarked) [Example 172]
8.37

Respond only with pEC50 recorded for O=C(N[C@@H]1C2CCC(/C2=C/C2CC2)[C@@H]1C(=O)Nc1ccc(F)c(C(F)(F)F)c1)c1cncc(C2=NOC3COCC23)c1 (single isomer, unassigned) [Example 63]
6.92

For the compound Cn1cc(Br)cc(C(=O)N[C@@H]2C3CCC(/C3=C/C3CC3)[C@@H]2C(=O)Nc2ccc(F)c(C(F)(F)F)c2)c1=O (some centres unmarked) [Example 18] , give its measured pEC50 value.
5.68

Specify pEC50 for COc1ncc(C2=NOC3COCC23)cc1C(=O)N[C@H]1[C@@H](C(=O)Nc2ccc(F)c(C(F)(F)F)c2)[C@H]2CC[C@@H]1/C2=C\C1CCCC1 (some centres unmarked) [Example 136] and stop.
8.60

Please look at this compound and report its pEC50: COc1ncc(C2=NOC3CC(CO)CC23)cc1C(=O)N[C@H]1[C@@H](C(=O)Nc2ccc(F)c(C(F)(F)F)c2)[C@H]2CC[C@@H]1/C2=C\CCC(F)(F)F (some centres unmarked) [Example 139]
8.54

Read off the recorded pEC50 for COc1cn(CCS(C)(=O)=O)nc1C(=O)N[C@H]1[C@@H](C(=O)Nc2ccc(F)c(C(F)(F)F)c2)[C@H]2CC[C@@H]1/C2=C\C1CC1 [Example 77]
7.15
